Listed here are binders together with their documented IC50.
measured_target: T1, Fc-CLEC1 labelled with Alexa Fluor 488 (human, Alexa Fluor 488 label (sites not given))
T1 construct: also called Fc-CLEC1-A488; Alexa488-Fc-Clec-1
T1 chain: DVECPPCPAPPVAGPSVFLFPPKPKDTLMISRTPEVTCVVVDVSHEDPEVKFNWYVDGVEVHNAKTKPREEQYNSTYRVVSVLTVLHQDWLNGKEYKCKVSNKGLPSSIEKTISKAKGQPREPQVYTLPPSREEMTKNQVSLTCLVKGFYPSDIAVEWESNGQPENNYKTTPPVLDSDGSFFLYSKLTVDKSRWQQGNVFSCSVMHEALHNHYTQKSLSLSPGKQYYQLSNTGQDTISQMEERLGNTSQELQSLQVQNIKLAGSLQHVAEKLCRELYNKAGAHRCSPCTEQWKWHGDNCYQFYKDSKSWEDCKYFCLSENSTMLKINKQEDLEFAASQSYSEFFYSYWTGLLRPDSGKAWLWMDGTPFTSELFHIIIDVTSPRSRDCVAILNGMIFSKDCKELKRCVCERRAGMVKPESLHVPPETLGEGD
experiment: FACS competition: blocks Fc-CLEC1-A488 (10 nM) binding to CLEC-1 ligand on permeabilised Raji cells; read-out Mean

binder	unit_annotation	IC50
murine anti-hCLEC1 antibody 11H11-G11 (antibody, V domains shown, Mouse hybridoma antibody) VH: QIHLVQSGPELKKPGETVKISCKASGYTFTNFGMNWVKQAPGKGLKWMGWINTNTGEPTYADDFKGRFAFSLETSASTAYLQINNLKNEDTATYFCARGAPAWFTYWGQGTLVTVSA VL: DIQMTQSPASLSASVGETVTITCRATENIYSYLAWYQQKQGKSPQFLVYNAKTLAEGMPSRFSGSGSGTQFSLKINILQPEDFGTYYCQHHFGTPLTFGAGTKLELK	µg/mL	1.5
murine anti-hCLEC1 antibody 5D1-A5 (antibody, V domains shown, Mouse hybridoma antibody) VH: QVQLKESGPGLVAPSQSLSITCTISGFSLTSYGVHWVRQPPGKGLEWLVVIWSDGSTIYNSALKSRLSISKDNSKSQVFLKMNSLQTDDTAMYYCARHGGYYNYFDYWGQGTTLTVSS VL: DIQMNQSPSSLSASLGDTITITCHASQNINVWLSWYQQKPGNIPKLLIYKASNLHTGVPSRFSGSGSGTGFTLTISSLQPEDIATYYCQQGQSYWTFGGGTKLEIK	µg/mL	4.4
murine anti-hCLEC1 antibody 15E3-G3 (antibody, V domains shown, Mouse hybridoma antibody) VH: QVQLQQSGPELVKPGASVKMSCKASGFTFTDYVIAWVKVRTGQGLEWIGEIYPGSGSIYYNEKFKGKATLTADKSSNTAYMQLSSLTSEDSAVYFCASSTVVAFDYWGQGTTLTVSS VL: EIVLTQSPTTLAASPGEKIIITCSDSSSISSNYLHWYQQKPGFSPKLLIYGTSNLASGVPARFSGSGSGTTYSLTIGTMEAEDVATYYCQQGSSIPRTFGGGTKLEIK	µg/mL	1.3
